Provenance of the data: ChEMBL document CHEMBL5096220

Assay Info: Hemolytic activity in mouse RBC at 100 uM incubated for 1 hr
Format: toxicity, cell-based, Erythrocyte
Measurement Parameters: mouse red blood cells (erythrocytes), read-out: Activity
Endpoint Label: hemolysis at 1 h, 100 µM (%)
Just the number in %, nothing appended.

[ask] Which measured hemolysis at 1 h, 100 µM value corresponds to COc1cc(C(=O)NS(=O)(=O)c2ccccc2C)ccc1Cc1cn(C)c2ccc(NC(=O)OC3CCCC3)cc12 ?
[reply] 72

---

Assay Info: Hemolytic activity in mouse RBC at 27 microg/ml incubated for 1 hr
Format: toxicity, cell-based, Erythrocyte
Measurement Parameters: mouse red blood cells (erythrocytes), at 27 µg/mL, read-out: Activity
Endpoint Label: hemolysis at 1 h, 27 microg/ml (%)
Just the number in %, nothing appended.

[ask] Which measured hemolysis at 1 h, 27 microg/ml value corresponds to C[C@@H]1[C@H](O)[C@@H](C)/C=C/C=C/C=C/C=C/C=C/C=C/C=C/[C@H](O[C@@H]2O[C@H](C)[C@@H](O)[C@H](N)[C@@H]2O)C[C@@H]2O[C@](O)(C[C@@H](O)C[C@@H](O)[C@H](O)CC[C@@H](O)C[C@@H](O)CC(=O)O[C@H]1C)C[C@H](O)[C@H]2C(=O)O ?
[reply] 0

---

System: Erythrocyte
Assay Info: Hemolytic activity in mouse RBC upto 100 uM incubated for 1 hr
Assay type: toxicity, cell-based
Endpoint Label: Activity

CCCCn1cc(Cc2ccc(OC)c(C(=O)NS(=O)(=O)c3ccccc3F)c2)c2cc([N+](=O)[O-])ccc21
<= 25%
CCCn1cc(Cc2ccc(OC)c(C(=O)NS(=O)(=O)c3ccc([N+](=O)[O-])cc3)c2)c2cc([N+](=O)[O-])ccc21
<= 15%
CCCCn1cc(Cc2ccc(OC)c(C(=O)NS(=O)(=O)c3ccc([N+](=O)[O-])cc3)c2)c2cc([N+](=O)[O-])ccc21
<= 15%
CCCn1cc(Cc2ccc(OC)c(C(=O)NS(=O)(=O)c3ccccc3F)c2)c2cc([N+](=O)[O-])ccc21
<= 25%
